As shown below, each of these molecules has a reported Plasma concentration, 2 h value.
# PROTOCOL TEXT: Exploratory trial: plasma concentration of rikkunshito ingredients after single oral rikkunshito 7.5 g
# Assay type: in vivo
# PARTICULARS: 2 h after single oral rikkunshito 7.5 g; mean ± S.D., n = 4
# Experimental: A random sequence was generated using a computer. The safety endpoint was evaluated in all volunteers. […] For quantification of synephrine, 5 µL of standard solution or methanol was added to 100 µL plasma or urine samples followed by mixing. […] For quantification of 30 ingredients other than atractylodin and synephrine, 25 µL of standard solution or methanol was added to 500 µL plasma or urine samples followed by mixing. […]

{"columns": ["MOLECULE", "UNITS OF MEASURE", "Plasma concentration, 2 h"],
 "data": [
  ["O=C1C[C@@H](c2ccc(O[C@@H]3O[C@H](CO)[C@@H](O)[C@H](O)[C@H]3O)cc2)Oc2cc(O)ccc21 [Liquiritin]", "ng/mL", 0.403],
  ["C=C(CC[C@@H](C(=O)O)[C@H]1[C@H](O)C[C@@]2(C)C3=C(CC[C@]12C)[C@@]1(C)CC[C@H](OC(C)=O)C(C)(C)[C@@H]1CC3)C(C)C [Pachymic acid]", "ng/mL", 0.205]
]}

====

As shown below, each of these compounds has a reported Stability in gastric pH solution, Quantitative value value.
# PROTOCOL TEXT: Stability of ingredients in gastric pH solution (pH 1.2, 37°C)
# Format: physicochemical
# PARTICULARS: rikkunshito in acidic solution (pH 1.2) at 37°C, 0.5 h
# Experimental: Rikkunshito gradually dissolved in acidic solution (pH 1.2) at 37°C, and the concentration of atractylodin after adding 0.25, 0.5, 1, and 2 h was measured by gas chromatography–mass spectrometry.
QUANTITY MEASURED: Stability in gastric pH solution, Quantitative value (ng/mL)

{"columns": ["COMPOUND", "UNITS OF MEASURE", "ENDPOINT VALUE"],
 "data": [
  ["CC(C)=CCC[C@](C)(O)[C@H]1CC[C@]2(C)[C@@H]1[C@H](O)C[C@@H]1[C@@]3(C)CC[C@H](O)C(C)(C)[C@@H]3[C@@H](O[C@@H]3O[C@H](CO)[C@@H](O)[C@H](O)[C@H]3O[C@@H]3O[C@H](CO)[C@@H](O)[C@H](O)[C@H]3O)C[C@]12C [Ginsenoside Rf]", "ng/mL", 190],
  ["CC1(C)CC[C@]2(C(=O)O)CC[C@]3(C)C(=CC[C@@H]4[C@@]5(C)CC[C@H](O)C(C)(C)[C@@H]5CC[C@]43C)[C@@H]2C1 [Oleanolic acid]", "ng/mL", 3.61],
  ["CNCC(O)c1ccc(O)cc1 (stereo not drawn) [Synephrine]", "ng/mL", 3200],
  ["C/C=C/C#CC#C/C=C/c1ccco1 [Atractylodin]", "ng/mL", 9.03],
  ["CCCCCCC/C=C/C(=O)CCc1ccc(O)c(OC)c1 [[8]-Shogaol, [8]-Shogaol]", "ng/mL", 2.00],
  ["COc1ccc([C@@H]2CC(=O)c3c(O)cc(O[C@@H]4O[C@H](CO[C@@H]5O[C@@H](C)[C@H](O)[C@@H](O)[C@H]5O)[C@@H](O)[C@H](O)[C@H]4O)cc3O2)cc1O [Hesperidin]", "ng/mL", 2860]
]}
